- Tested on: Escherichia coli ATCC 25922
- Assay Notes: Minimum inhibitory concentration (MIC), CLSI broth micro-dilution, E. coli
- Type: cell-based
- Test Context: Escherichia coli, ATCC25922, 22 h, Table 7, cation adjusted Mueller Hinton Broth + 0.002% Tween-80, 35° C.
Property: MIC (µM)

Completed entries (count: 2):
Cc1nc(-c2ccc(C(C)(C)C)cc2)nc(C)c1C(=O)N[C@@H](CCN)C(=O)N(C)[C@@H]1C(=O)N[C@@H](C)C(=O)N[C@H](C(=O)NCC#N)Cc2ccc(OC3CCNCC3)c(c2)-c2cc1ccc2O (racemic) [Compound 609] : 0.5
Cc1nc(-c2ccc(OC3CCCCC3)cc2)nc(C)c1C(=O)N[C@@H](CNS(N)(=O)=O)C(=O)N(C)[C@@H]1C(=O)N[C@@H](C)C(=O)N[C@H](C(=O)NCC#N)Cc2ccc(OCCCN)c(c2)-c2cc1ccc2OCCCN (racemic) [Compound 576] : 0.5

I: Cc1nc(-c2ccc(C(C)(C)C)cc2)nc(C)c1C(=O)N[C@@H](CCN)C(=O)N(C)[C@@H]1C(=O)N[C@@H](C)C(=O)N[C@H](C(=O)NCC#N)Cc2ccc(O)c(c2)-c2cc1cc(OCCN)c2OCCN [Compound 633]
II: Cc1nc(-c2ccc(C(C)(C)C)cc2)nc(C)c1C(=O)N[C@@H](CCN)C(=O)N(C)[C@@H]1C(=O)N[C@@H](C)C(=O)N[C@H](C(=O)NCC#N)Cc2ccc(O)c(c2)-c2cc1ccc2OC1CNC1 (racemic) [Compound 604]
III: Cc1nc(-c2ccc(OC3CCCCC3)cc2)nc(C)c1C(=O)N[C@@H](CNS(N)(=O)=O)C(=O)N[C@@H]1C(=O)N[C@@H](C)C(=O)N[C@H](C(=O)NCC#N)Cc2ccc(OCCN)c(c2)-c2cc1ccc2OCCN (racemic) [Compound 573]
**Q:** Ordering criterion: MIC; begin with the maximum. Output spec: labels arranged per the requested ranking.
**A:** II, III, I
(II: 0.75 µM, III: 0.5 µM, I: 0.047 µM)

====

- System: Escherichia coli ATCC 25922
- Assay Notes: Minimum inhibitory concentration (MIC), CLSI broth micro-dilution, E. coli
- Format: cell-based
- Test Context: Escherichia coli, ATCC25922, 22 h, Table 7, cation adjusted Mueller Hinton Broth + 0.002% Tween-80, 35° C.
- Protocol: In vitro antimicrobial activity of each compound was determined by measuring minimal inhibitor concentrations (MICs) using the broth micro-dilution technique as approved by the Clinical and Laboratory Standards Institute (CLSI) (Methods for Dilution Antimicrobial Susceptibility Tests for Bacteria that Grow Aerobically; Approved Standard-Eighth Edition. CLSI document M07-A8. Wayne, PA: Clinical and Laboratroy Standards; 2009). […]
Property: MIC (µM)

// known answers, use as guide
Cc1nc(-c2ccc(C(C)(C)C)cc2)nc(C)c1C(=O)N[C@@H](CCNS(N)(=O)=O)C(=O)N(C)[C@@H]1C(=O)N[C@@H](C)C(=O)N[C@H](C(=O)NCC#N)Cc2ccc(OCCN)c(c2)-c2cc1ccc2OCCN (racemic) : 0.5
Cc1nc(-c2ccc(C(C)(C)C)cc2)nc(C)c1C(=O)N[C@@H](CCN)C(=O)N(C)[C@@H]1C(=O)N[C@@H](C)C(=O)N[C@H](C(=O)NCC#N)Cc2ccc(O)c(c2)-c2cc1ccc2OC(C)CN (mixture of isomers) : 0.5

P: Cc1nc(-c2ccc(C(C)(C)C)cc2)nc(C)c1C(=O)N[C@@H](CNS(N)(=O)=O)C(=O)N(C)[C@@H]1C(=O)N[C@@H](C)C(=O)N[C@H](C(=O)NCC#N)Cc2ccc(OCCN)c(c2)-c2cc1cc(OCCN)c2O (racemic)
Q: Cc1nc(-c2ccc(C(C)(C)C)cc2)nc(C)c1C(=O)N[C@@H](CCN)C(=O)N(C)[C@@H]1C(=O)N[C@@H](C)C(=O)N[C@H](C(=O)NCC#N)Cc2ccc(OCCN)c(c2)-c2cc1ccc2OC[C@H](O)CN (racemic)
**Q:** Could you tell me which of P and Q has the lower MIC reading? Field: selected label. Fill in the label of the entry you choose.
**A:** Q

From: patent US20260274892A1
